- TARGET: Fyn (UniProt P06241)
- Sequence (P06241 whole entry, looked up): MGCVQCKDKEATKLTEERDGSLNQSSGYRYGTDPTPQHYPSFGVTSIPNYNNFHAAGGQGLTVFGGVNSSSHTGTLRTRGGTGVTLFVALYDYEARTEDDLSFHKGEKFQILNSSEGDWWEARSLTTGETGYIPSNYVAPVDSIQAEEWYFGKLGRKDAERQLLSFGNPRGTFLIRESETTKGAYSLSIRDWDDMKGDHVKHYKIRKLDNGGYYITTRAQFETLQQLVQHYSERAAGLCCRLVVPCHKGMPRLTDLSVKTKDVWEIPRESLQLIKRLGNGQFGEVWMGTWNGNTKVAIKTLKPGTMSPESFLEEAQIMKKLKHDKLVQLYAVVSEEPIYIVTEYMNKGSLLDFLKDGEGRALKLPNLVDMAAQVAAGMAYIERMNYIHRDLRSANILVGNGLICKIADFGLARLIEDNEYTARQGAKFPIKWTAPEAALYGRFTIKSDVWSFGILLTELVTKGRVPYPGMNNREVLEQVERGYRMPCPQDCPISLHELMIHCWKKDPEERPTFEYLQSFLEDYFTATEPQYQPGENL
- ASSAY_COMMENT: phosphorylation enrichment, bacterial display (enrichment ratio); higher = better substrate or ligand; peptides without Tyr show the background;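 also: 11-residue human phosphosite peptides and single-mutation variants displayed on the E. coli surface, counted by deep sequencing, each peptide's frequency after selection divided by its frequency in the unselected input library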;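 also: frequency after pTyr selection over input frequency; kinase dosed for 20-30% of maximal phosphorylation in three min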
Everything with phosphorylation enrichment lower than 0.6 is 0 (no); everything else, including exactly 0.6, is 1 (yes).

item_sequence="ILDEAYVMAIV [EGFR_Y764_S768I]" target="Fyn (UniProt P06241)" label_value="1 (yes)"
item_sequence="NFRTIYVNANE [KCNH2_Y475_T474I]" target="Fyn (UniProt P06241)" label_value="0 (no)"
item_sequence="FFCRWYRNQKS [EREG_Y144_R147Q_YF]" target="Fyn (UniProt P06241)" label_value="0 (no)"
item_sequence="SSYSGYIMMPN [LEF1_Y114]" target="Fyn (UniProt P06241)" label_value="0 (no)"
item_sequence="PSALGYSPSLR [LLGL2_Y40]" target="Fyn (UniProt P06241)" label_value="1 (yes)"
item_sequence="GGGGGYNCSSG [FUS_Y232_R234C]" target="Fyn (UniProt P06241)" label_value="0 (no)"
item_sequence="RRIHSYRGRLW [VHL_Y112_H115R]" target="Fyn (UniProt P06241)" label_value="0 (no)"
item_sequence="GGRKGYGDFSR [RECQL5_Y478]" target="Fyn (UniProt P06241)" label_value="0 (no)"
item_sequence="GRRNTYFASIA [ACADM_Y352_YF]" target="Fyn (UniProt P06241)" label_value="0 (no)"
item_sequence="RFLRGYRQDAY [HLA-A_Y137]" target="Fyn (UniProt P06241)" label_value="1 (yes)"
item_sequence="FDAHIYEGCVI [PRKCD_Y64_R67C]" target="Fyn (UniProt P06241)" label_value="1 (yes)"
item_sequence="LFEDRYLLGPS [ASS1_Y87_T91P_YF]" target="Fyn (UniProt P06241)" label_value="1 (yes)"
item_sequence="IKNPQYFSDAC [NTRK1_Y496_E492K]" target="Fyn (UniProt P06241)" label_value="0 (no)"
item_sequence="YNDSAYNQQLI [ZPLD1_Y198_T197A]" target="Fyn (UniProt P06241)" label_value="0 (no)"
item_sequence="ANAFIYVVQLP [L1CAM_Y420_YF]" target="Fyn (UniProt P06241)" label_value="1 (yes)"
item_sequence="RNFGTYTAGLS [RHBDD1_Y264_D262G_YF]" target="Fyn (UniProt P06241)" label_value="0 (no)"
item_sequence="RLLVVYSWTQR [HBB_Y36_P37S]" target="Fyn (UniProt P06241)" label_value="1 (yes)"
item_sequence="KDHPDYKFQAR [SOX10_Y171_P175A_YF]" target="Fyn (UniProt P06241)" label_value="0 (no)"
item_sequence="KFVKMYDNHQL [MYO9A_Y203_YF]" target="Fyn (UniProt P06241)" label_value="0 (no)"
item_sequence="DEGVNYFMSKG [FBXO8_Y156]" target="Fyn (UniProt P06241)" label_value="0 (no)"
item_sequence="TTPAVYARVTK [CTRB2_Y246_A250T]" target="Fyn (UniProt P06241)" label_value="1 (yes)"
item_sequence="YPIDHYLGKEM [G6PD_Y202_R198P]" target="Fyn (UniProt P06241)" label_value="0 (no)"
item_sequence="KSVVTYSPTTG [ITGB3BP_Y32_I30V]" target="Fyn (UniProt P06241)" label_value="0 (no)"
item_sequence="HLNLTYRILSF [MMP23B_Y95_F91L]" target="Fyn (UniProt P06241)" label_value="1 (yes)"
item_sequence="IAAEFYDNLPH [DEGS1_Y284_YF]" target="Fyn (UniProt P06241)" label_value="1 (yes)"
item_sequence="NQSVRYDSSLK [ABCC8_Y1353_L1349Q]" target="Fyn (UniProt P06241)" label_value="0 (no)"
item_sequence="LLREWYLPDPF [SIX3_Y225_Q227P_YF]" target="Fyn (UniProt P06241)" label_value="1 (yes)"
item_sequence="AVIADYMFWLG [SPATA16_Y290_M286V]" target="Fyn (UniProt P06241)" label_value="1 (yes)"
item_sequence="QTEAEYRFIFM [PTPN11_Y511_Q510E_YF]" target="Fyn (UniProt P06241)" label_value="0 (no)"
item_sequence="GFEEAYSVFKK [PAFAH1B1_Y28_YF]" target="Fyn (UniProt P06241)" label_value="1 (yes)"
item_sequence="EGLRRYLENGK [HLA-A_Y195_W191G]" target="Fyn (UniProt P06241)" label_value="0 (no)"
item_sequence="VTQEPYELFCE [CBL_Y368_Q367P_YF]" target="Fyn (UniProt P06241)" label_value="1 (yes)"
item_sequence="GVPLGYPIKAP [ELN_Y206]" target="Fyn (UniProt P06241)" label_value="0 (no)"
item_sequence="EEVPLYESATT [DCC_Y809_G805E]" target="Fyn (UniProt P06241)" label_value="1 (yes)"
item_sequence="ARGTRYRYVSQ [UCN3_Y95]" target="Fyn (UniProt P06241)" label_value="0 (no)"
item_sequence="MAFDRYVAVCA [OR52J3_Y125]" target="Fyn (UniProt P06241)" label_value="0 (no)"
item_sequence="QMVGMYASFFM [AVPR2_Y124_S127F_YF]" target="Fyn (UniProt P06241)" label_value="1 (yes)"
item_sequence="GFRVCYTPDSR [PTPRF_Y451_Y450C_YF]" target="Fyn (UniProt P06241)" label_value="0 (no)"
item_sequence="DHYNQYEQQKM [CHD7_Y75]" target="Fyn (UniProt P06241)" label_value="1 (yes)"
item_sequence="IGEGTYGVVYK [CDK2_Y15]" target="Fyn (UniProt P06241)" label_value="1 (yes)"
item_sequence="ATARPYSPYII [LRP5_Y1528_R1529S]" target="Fyn (UniProt P06241)" label_value="1 (yes)"
item_sequence="KLIMEYLPYGS [JAK2_Y931]" target="Fyn (UniProt P06241)" label_value="0 (no)"
item_sequence="CTTIHYNYMWN [TP53_Y234_C238W]" target="Fyn (UniProt P06241)" label_value="0 (no)"
item_sequence="GANSEYIIAEK [ECHS1_Y35_F33S]" target="Fyn (UniProt P06241)" label_value="1 (yes)"
item_sequence="CRIELYRIVES [IGFBP1_Y181_V183I]" target="Fyn (UniProt P06241)" label_value="0 (no)"
item_sequence="EREFKYGAHKF [OAT_Y50_N54K_YF]" target="Fyn (UniProt P06241)" label_value="0 (no)"
item_sequence="ERDFTYDELLN [EIF2S2_Y176_E177D_YF]" target="Fyn (UniProt P06241)" label_value="1 (yes)"
item_sequence="FDGGCYEQLFV [MC4R_Y41_S36Y_YF]" target="Fyn (UniProt P06241)" label_value="1 (yes)"
item_sequence="SVKVFYKKCWS [EPHA7_Y202_YF]" target="Fyn (UniProt P06241)" label_value="0 (no)"
item_sequence="IHTDAYVRAMT [RPE65_Y89_R85H]" target="Fyn (UniProt P06241)" label_value="0 (no)"
item_sequence="FDGKDYIALKE [HLA-A_Y147_N151K_YF]" target="Fyn (UniProt P06241)" label_value="0 (no)"
item_sequence="TINPIYEHVGY [CHN1_Y143]" target="Fyn (UniProt P06241)" label_value="1 (yes)"
item_sequence="DTDSSYCIPIA [GAB1_Y373_T377I]" target="Fyn (UniProt P06241)" label_value="0 (no)"

---

- TARGET: Fyn (UniProt P06241)
- ASSAY_COMMENT: phosphorylation enrichment, bacterial display (enrichment ratio); higher = better substrate or ligand; peptides without Tyr show the background
Please map values of phosphorylation enrichment to classes as shown: range A: < 0.5; range B: ≥ 0.5 and < 0.6; range C: ≥ 0.6

item_sequence="VITTLYIGFLG [KCNQ1_Y267_L262V]" label_value="range C"
item_sequence="IHKEFYDGLFP [BCR_Y561]" label_value="range B"
item_sequence="IIEDPYFGNDF [ACP1_Y132_S137F_YF]" label_value="range C"
item_sequence="SFPPTYRYERG [INPPL1_Y661]" label_value="range A"
item_sequence="VVHGSYDEIEG [SEC24A_Y263_S261G]" label_value="range A"
item_sequence="STSKTYVISRT [RBBP6_Y87]" label_value="range A"
item_sequence="HYEDGYPGGSD [CTNND1_Y221]" label_value="range C"
item_sequence="PKAWNYELPAT [PROM1_Y34]" label_value="range C"
item_sequence="LTYHMYADPNF [SOS1_Y618]" label_value="range C"
item_sequence="TLLERYGMIEI [ACSF3_Y355_T358I]" label_value="range B"
item_sequence="LDYNEYFRDLN [HPRT1_Y198]" label_value="range C"
item_sequence="ANSSFHSTRSA [NUMA1_Y1836_Y1836H]" label_value="range B"
item_sequence="KVDKECEVRVR [GHR_Y226_Y226C]" label_value="range A"
item_sequence="EEKKKYFDTKI [CASP5_Y103_YF]" label_value="range A"
item_sequence="TKLKDYYIFNK [CCDC42_Y149_A144T]" label_value="range B"
item_sequence="KVNKIYFPDFI [LIG3_Y767_YF]" label_value="range A"
item_sequence="DFLSSYSAVKQ [OAT_Y85_N89K]" label_value="range A"
item_sequence="PSQRPYVYYYS [PTEN_Y174_R173P]" label_value="range C"
item_sequence="LYIDSYEKDVA [PGM1_Y521]" label_value="range C"
item_sequence="FRPPFYHRNCM [HGD_Y334_YF]" label_value="range A"
item_sequence="TFMKQYPKVFL [CNBD1_Y70]" label_value="range B"
item_sequence="TGQERYRAITS [RAB11B_Y73_A68T]" label_value="range A"
item_sequence="SVGVPYEPPEV [TP53_Y220_V217G]" label_value="range B"
item_sequence="ASGKYYAMKIL [AKT3_Y174]" label_value="range A"
item_sequence="PVGVLYKVKVY [PTS_Y128]" label_value="range C"
item_sequence="RRNEEYCLLAS [ITK_Y198_D202A]" label_value="range B"

The values you see were collected from the supplement of paper PMC10065799.
